test system: D93 binding to human denatured-collagen IV; assay: Competition ELISA: synthetic peptides blocking D93 binding to heat denatured collagen IV; conditions: peptide inhibitor concentration 1000 μM; average of two studies; vs 1% BSA/PBS alone
Square brackets hold non-standard residues; d marks the D form. Ends that are not written are not given here. Hyp = O=C(O)[C@@H]1C[C@@H](O)CN1
Value type: % INHIBITION OF BINDING OF D93 TO HUMAN DENATURED-COLLAGEN IV (%)

The substance LPGLPG (L[Hyp]GL[Hyp]G) [SEQ ID NO: 25] showed % INHIBITION OF BINDING OF D93 TO HUMAN DENATURED-COLLAGEN IV equal to 46.5

The substance GPPGPPGP (GPXGPXGP; MOD_RES (3) Hydroxyproline; MOD_RES (6) Hydroxyproline) [SEQ ID NO: 31] showed % INHIBITION OF BINDING OF D93 TO HUMAN DENATURED-COLLAGEN IV equal to 92.5

The substance PGPPGPPGP (PGP[Hyp]GP[Hyp]GP) [SEQ ID NO: 29] showed % INHIBITION OF BINDING OF D93 TO HUMAN DENATURED-COLLAGEN IV equal to 93.5

The substance LPGPPGPPGP (LPGP[Hyp]GP[Hyp]GP) [SEQ ID NO: 20] showed % INHIBITION OF BINDING OF D93 TO HUMAN DENATURED-COLLAGEN IV equal to 92.5

The substance PGPPGPPGPY (PGP[Hyp]GP[Hyp]GPY) [SEQ ID NO: 28] showed % INHIBITION OF BINDING OF D93 TO HUMAN DENATURED-COLLAGEN IV equal to 93.5

The substance LPGFPGC [SEQ ID NO: 37, reference compound] showed % INHIBITION OF BINDING OF D93 TO HUMAN DENATURED-COLLAGEN IV equal to 6.5

The substance F-Hyp-G-P-Hyp-G-P-D-G-L-P-G-S-M-G-P-Hyp-G (F[Hyp]GP[Hyp]GPDGLPGSMGP[Hyp]G) [SEQ ID NO: 36] showed % INHIBITION OF BINDING OF D93 TO HUMAN DENATURED-COLLAGEN IV equal to 93.5

The substance LPGTPG (L[Hyp]GT[Hyp]G) [SEQ ID NO: 27] showed % INHIBITION OF BINDING OF D93 TO HUMAN DENATURED-COLLAGEN IV equal to 24

The substance PGAKGLPGP ([Hyp]GAKGLPGP) [SEQ ID NO: 17] showed % INHIBITION OF BINDING OF D93 TO HUMAN DENATURED-COLLAGEN IV equal to 11.5

1. LPGSPG (L[Hyp]GS[Hyp]G) [SEQ ID NO: 26]
2. CTWPRHHTTDALL [SEQ ID NO: 39, reference compound]
// query // returns 1 or 2 , whichever has the lower % INHIBITION OF BINDING OF D93 TO HUMAN DENATURED-COLLAGEN IV Give the label under which the chosen entry appears.
// result 2
(2: 3.5%, 1: 13.5%)
